Target: human FXR (NR1H4) (Homo sapiens (Human), UniProt Q96RI1)
Sequence (Q96RI1 whole entry, the tested form may be a part): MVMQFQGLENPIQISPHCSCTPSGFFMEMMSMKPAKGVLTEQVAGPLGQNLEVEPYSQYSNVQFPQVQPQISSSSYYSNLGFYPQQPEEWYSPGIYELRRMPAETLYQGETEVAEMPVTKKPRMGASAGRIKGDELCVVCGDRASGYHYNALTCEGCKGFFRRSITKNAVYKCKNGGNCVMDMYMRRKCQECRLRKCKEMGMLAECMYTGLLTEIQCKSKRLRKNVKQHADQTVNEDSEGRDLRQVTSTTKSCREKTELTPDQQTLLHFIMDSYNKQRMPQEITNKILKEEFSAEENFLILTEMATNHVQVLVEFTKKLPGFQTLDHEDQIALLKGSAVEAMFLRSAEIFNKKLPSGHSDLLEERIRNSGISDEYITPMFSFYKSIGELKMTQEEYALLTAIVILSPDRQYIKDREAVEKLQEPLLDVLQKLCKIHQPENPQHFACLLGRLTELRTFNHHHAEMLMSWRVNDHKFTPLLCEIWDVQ
Experiment: Human FXR (NR1H4) Assay (Gal4 promoter driven luciferase reporter, Indigo Bioscience kit)
Assay type: cell-based
Conditions: Human FXR (NR1H4) Assay, potency ranges
Can you tell me EC50 for the items I'm about to list?

CC[C@H]1[C@@H](O)[C@@H]2[C@H](CC[C@]3(C)[C@@H]([C@H](C)CCOC(=O)NS(=O)(=O)c4ccc(OC(C)C)cc4)CC[C@@H]23)[C@@]2(C)CC[C@@H](O)C[C@@H]12 [Example 100]: < 100 nM
CC[C@H]1[C@@H](O)[C@@H]2[C@H](CC[C@]3(C)[C@@H]([C@H](C)CCOC(=O)N4CC(=O)N(Cc5ccccc5)S4(=O)=O)CC[C@@H]23)[C@@]2(C)CC[C@@H](O)C[C@@H]12 [Example 109]: 1000 to 10000 nM
CC[C@H]1[C@@H](O)[C@@H]2[C@H](CC[C@]3(C)[C@@H]([C@H](C)CCOC(=O)NS(=O)(=O)c4ccccc4C(C)(C)C)CC[C@@H]23)[C@@]2(C)CC[C@@H](O)C[C@@H]12 [Example 85]: < 100 nM

Field: next compound
GET /value?item= CC[C@H]1[C@@H](O)[C@@H]2[C@H](CC[C@]3(C)[C@@H]([C@H](C)CCCOC(=O)NS(=O)(=O)c4ccc(C)cc4)CC[C@@H]23)[C@@]2(C)CC[C@@H](O)C[C@@H]12 [Example 1] &field=EC50 returns 100 to 1000 nM

----------
Target: UniProt Q96RI1
Experiment: Human FXR (NR1H4) Assay (Gal4 promoter driven luciferase reporter, Indigo Bioscience kit)
Format: cell-based
Settings: read-out: Efficacy (%)
Lab note: anything with Emax below 300% is marked 1 (yes); values at 300% or higher are marked 0 (no).

Below are worked cases with known answers.
CC[C@H]1[C@@H](O)[C@@H]2[C@H](CC[C@]3(C)[C@@H]([C@H](C)CCCOC(=O)NS(=O)(=O)N(C)C)CC[C@@H]23)[C@@]2(C)CC[C@@H](O)C[C@@H]12: 0 (no)
CC[C@H]1[C@@H](O)[C@@H]2[C@H](CC[C@]3(C)[C@@H]([C@H](C)COC(=O)NS(=O)(=O)c4ccc(C(C)(C)C)cc4)CC[C@@H]23)[C@@]2(C)CC[C@@H](O)C[C@@H]12: 0 (no)
CC[C@H]1[C@@H](O)[C@@H]2[C@H](CC[C@]3(C)[C@@H]([C@H](C)CCOC(=O)N[C@@H](C)C4CC4)CC[C@@H]23)[C@@]2(C)CC[C@@H](O)C[C@@H]12: 1 (yes)
CC[C@H]1[C@@H](O)[C@@H]2[C@H](CC[C@]3(C)[C@@H]([C@H](C)CCOC(=O)NS(=O)(=O)c4ccc(Cl)cc4)CC[C@@H]23)[C@@]2(C)CC[C@@H](O)C[C@@H]12: 1 (yes)
CC[C@H]1[C@@H](O)[C@@H]2[C@H](CC[C@]3(C)[C@@H]([C@H](C)CCOC(=O)N(C)OC)CC[C@@H]23)[C@@]2(C)CC[C@@H](O)C[C@@H]12: 1 (yes)

Input CC[C@H]1[C@@H](O)[C@@H]2[C@H](CC[C@]3(C)[C@@H]([C@H](C)CCOC(=O)NCC(C)(C)O)CC[C@@H]23)[C@@]2(C)CC[C@@H](O)C[C@@H]12 ; condition: Emax strictly below 300%. Does it hold?
1 (yes)

----------
Biological target: human FXR (NR1H4) (Homo sapiens (Human), UniProt Q96RI1)
Assay: Human FXR (NR1H4) Assay (Gal4 promoter driven luciferase reporter, Indigo Bioscience kit)
Settings: Human FXR (NR1H4) Assay, potency ranges
endpoint_label: EC50

CC[C@H]1[C@@H](O)[C@@H]2[C@H](CC[C@]3(C)[C@@H]([C@H](C)COC(=O)NS(=O)(=O)c4ccc(C(C)(C)C)s4)CC[C@@H]23)[C@@]2(C)CC[C@@H](O)C[C@@H]12: < 100 nM

Notebook: CC[C@H]1[C@@H](O)[C@@H]2[C@H](CC[C@]3(C)[C@@H]([C@H](C)COC(=O)NS(=O)(=O)c4ccc(-n5ccnn5)cc4)CC[C@@H]23)[C@@]2(C)CC[C@@H](O)C[C@@H]12 , EC50 read as < 100 nM

----------
Target: human FXR (NR1H4) (Homo sapiens (Human))
Experiment: Human FXR (NR1H4) Assay (Gal4 promoter driven luciferase reporter, Indigo Bioscience kit)
Conditions: Human FXR (NR1H4) Assay, potency ranges
pEC50: −log10 of the molar value.
endpoint_label: pEC50

Consider the following illustrative entries.
CC[C@H]1[C@@H](O)[C@@H]2[C@H](CC[C@]3(C)[C@@H]([C@H](C)COC(=O)NC4CCCCC4)CC[C@@H]23)[C@@]2(C)CC[C@@H](O)C[C@@H]12: 5.00 to 6.00
CC[C@H]1[C@@H](O)[C@@H]2[C@H](CC[C@]3(C)[C@@H]([C@H](C)CCOC(=O)Nc4ccc5ccccc5c4)CC[C@@H]23)[C@@]2(C)CC[C@@H](O)C[C@@H]12: 5.00 to 6.00

# evaluate next
Lab book: pEC50 of CC[C@H]1[C@@H](O)[C@@H]2[C@H](CC[C@]3(C)[C@@H]([C@H](C)CCOC(=O)NS(=O)(=O)c4ccccc4Cl)CC[C@@H]23)[C@@]2(C)CC[C@@H](O)C[C@@H]12 noted as 6.00 to 7.00

----------
Target: human FXR (NR1H4) (Homo sapiens (Human))
Experiment: Human FXR (NR1H4) Assay (Gal4 promoter driven luciferase reporter, Indigo Bioscience kit)
Format: cell-based
Settings: read-out: Efficacy (%)
# binarize Emax: threshold 200% inclusive, high side 1.0, low side 0.0

CC[C@H]1[C@@H](O)[C@@H]2[C@H](CC[C@]3(C)[C@@H]([C@H](C)CCOC(=O)NS(=O)(=O)c4cccnc4)CC[C@@H]23)[C@@]2(C)CC[C@@H](O)C[C@@H]12 [Example 95]: 1.0

Does Emax meet or surpass 200% for CC[C@H]1[C@@H](O)[C@@H]2[C@H](CC[C@]3(C)[C@@H]([C@H](C)COC(=O)NS(=O)(=O)c4ccc(C(C)(C)C)s4)CC[C@@H]23)[C@@]2(C)CC[C@@H](O)C[C@@H]12 [Example 44-j] ?
0.0

Threshold query (Emax >= 200%) on CC[C@H]1[C@@H](O)[C@@H]2[C@H](CC[C@]3(C)[C@@H]([C@H](C)CCOC(=O)NS(=O)(=O)c4cc(C(F)(F)F)cc(C(F)(F)F)c4)CC[C@@H]23)[C@@]2(C)CC[C@@H](O)C[C@@H]12 [Example 104-h]
1.0

Record CC[C@H]1[C@@H](O)[C@@H]2[C@H](CC[C@]3(C)[C@@H]([C@H](C)CCOC(=O)Nc4ccccc4)CC[C@@H]23)[C@@]2(C)CC[C@@H](O)C[C@@H]12 [Example 191] ; criterion: Emax no lower than 200%. Met?
1.0

----------
Target: human FXR (NR1H4) (Homo sapiens (Human))
Experiment: Human FXR (NR1H4) Assay (Gal4 promoter driven luciferase reporter, Indigo Bioscience kit)
Assay type: cell-based
Details: read-out: Efficacy (%)
Binarize Emax at 200%; below is Yes, at or above is No.

Example entries and their recorded answers appear below.
CC[C@H]1[C@@H](O)[C@@H]2[C@H](CC[C@]3(C)[C@@H]([C@H](C)CCOC(=O)NS(=O)(=O)c4cccc(F)c4)CC[C@@H]23)[C@@]2(C)CC[C@@H](O)C[C@@H]12: No
CC[C@H]1[C@@H](O)[C@@H]2[C@H](CC[C@]3(C)[C@@H]([C@H](C)CCOC(=O)NS(=O)(=O)c4ccccc4Cl)CC[C@@H]23)[C@@]2(C)CC[C@@H](O)C[C@@H]12: No
CC[C@H]1[C@@H](O)[C@@H]2[C@H](CC[C@]3(C)[C@@H]([C@H](C)CCOC(=O)N4CC(=O)NS4(=O)=O)CC[C@@H]23)[C@@]2(C)CC[C@@H](O)C[C@@H]12: Yes
CC[C@H]1[C@@H](O)[C@@H]2[C@H](CC[C@]3(C)[C@@H]([C@H](C)COC(=O)NS(=O)(=O)c4ccc(-c5ccccc5)cc4)CC[C@@H]23)[C@@]2(C)CC[C@@H](O)C[C@@H]12: Yes
CC[C@H]1[C@@H](O)[C@@H]2[C@H](CC[C@]3(C)[C@@H]([C@H](C)CCCOC(=O)NS(=O)(=O)C4CCCC4)CC[C@@H]23)[C@@]2(C)CC[C@@H](O)C[C@@H]12: No

Does this molecule meet the criterion Emax < 200%? CC[C@H]1[C@@H](O)[C@@H]2[C@H](CC[C@]3(C)[C@@H]([C@H](C)CCOC(=O)NS(=O)(=O)Cc4ccccc4)CC[C@@H]23)[C@@]2(C)CC[C@@H](O)C[C@@H]12
No

In plain terms, does CC[C@H]1[C@@H](O)[C@@H]2[C@H](CC[C@]3(C)[C@@H]([C@H](C)CCCOC(=O)NS(=O)(=O)N4CCCC4)CC[C@@H]23)[C@@]2(C)CC[C@@H](O)C[C@@H]12 come in under 200% for Emax?
No

The origin of these recorded values is patent US10457703B2.
